Hello, the source for this data is the supplement of paper PMC12076712, in case you need it.

Overview of reported pIC50 across a group of molecules:
- target desc: UniProt Q15418
- method notes: pIC50, kinobeads binding competition
- run conditions: cell material: Lysate mix
Output spec: single numeric token, no unit.

CCNC(=O)c1cc(Nc2cc(C3CC3)[nH]n2)nc(N2CCN(Cc3ccc(S(=O)(=O)F)cc3)CC2)n1	5.37
C#CCNC(=O)c1cc(Nc2cc(C)[nH]n2)nc(N2CCN(Cc3ccc(S(=O)(=O)F)cc3)CC2)n1	5.27
C#CCNC(=O)c1cc(Nc2cc(C3CC3)[nH]n2)nc(N2CCN(Cc3ccc(S(=O)(=O)F)cc3)CC2)n1	5.49

Entry under review: CCNC(=O)c1cc(Nc2cc(C)[nH]n2)nc(N2CCN(Cc3ccc(S(=O)(=O)F)cc3)CC2)n1 . Reported pIC50?
5.04

* * *

- target desc: UniProt P19784
- method notes: pIC50, kinobeads binding competition
- run conditions: cell material: Lysate mix
measurement name: pIC50
Please give only the number in your answer, with no unit.

For the record C#CCNC(=O)c1cc(Nc2cc(C)[nH]n2)nc(N2CCN(Cc3ccc(S(=O)(=O)F)cc3)CC2)n1 , what value of pIC50 is listed for UniProt P19784?
4.78

Would you kindly repeat that for C#CCNC(=O)c1cc(Nc2cc(C3CC3)[nH]n2)nc(N2CCN(Cc3ccc(S(=O)(=O)F)cc3)CC2)n1 ?
4.96

Would you kindly repeat that for CCNC(=O)c1cc(Nc2cc(C3CC3)[nH]n2)nc(N2CCN(Cc3ccc(S(=O)(=O)F)cc3)CC2)n1 ?
5.47

How about CCNC(=O)c1cc(Nc2cc(C)[nH]n2)nc(N2CCN(Cc3ccc(S(=O)(=O)F)cc3)CC2)n1 ?
5.1

* * *

- target desc: UniProt P07947
- method notes: pIC50, kinobeads binding competition
- run conditions: cell material: Lysate mix
measurement name: pIC50
Answer as a number with no unit attached.

Worked set:
CCNC(=O)c1cc(Nc2cc(C)[nH]n2)nc(N2CCN(Cc3ccc(S(=O)(=O)F)cc3)CC2)n1	7.16
Cc1cc(Nc2cc(C(=O)NCCNC(=O)OC3CC/C=C/CCC3)nc(N3CCN(Cc4ccc(S(=O)(=O)F)cc4)CC3)n2)n[nH]1 (stereo unspecified)	5.25
C#CCNC(=O)c1cc(Nc2cc(C)[nH]n2)nc(N2CCN(Cc3ccc(S(=O)(=O)F)cc3)CC2)n1	6.3
O=C(NCCNC(=O)c1cc(Nc2cc(C3CC3)[nH]n2)nc(N2CCN(Cc3ccc(S(=O)(=O)F)cc3)CC2)n1)OC1CC/C=C/CCC1 (stereo unspecified)	5.24
CCNC(=O)c1cc(Nc2cc(C3CC3)[nH]n2)nc(N2CCN(Cc3ccc(S(=O)(=O)F)cc3)CC2)n1	6.44

Switching to the query record.
Name the recorded pIC50 for C#CCNC(=O)c1cc(Nc2cc(C3CC3)[nH]n2)nc(N2CCN(Cc3ccc(S(=O)(=O)F)cc3)CC2)n1 .
6.62

* * *

- target desc: UniProt P49840
- method notes: pIC50, kinobeads binding competition
- run conditions: cell material: Lysate mix
Measured pIC50 values are reported for all entries that follow.

These recorded examples may help you get a feel for the data.
Cc1cc(Nc2cc(C(=O)NCCNC(=O)OC3CC/C=C/CCC3)nc(N3CCN(Cc4ccc(S(=O)(=O)F)cc4)CC3)n2)n[nH]1 (stereo unspecified)	< 4.52
CCNC(=O)c1cc(Nc2cc(C)[nH]n2)nc(N2CCN(Cc3ccc(S(=O)(=O)F)cc3)CC2)n1	< 4.52
CCNC(=O)c1cc(Nc2cc(C3CC3)[nH]n2)nc(N2CCN(Cc3ccc(S(=O)(=O)F)cc3)CC2)n1	< 4.52

Need pIC50 of O=C(NCCNC(=O)c1cc(Nc2cc(C3CC3)[nH]n2)nc(N2CCN(Cc3ccc(S(=O)(=O)F)cc3)CC2)n1)OC1CC/C=C/CCC1 (stereo unspecified) , thanks.
< 4.52

Try this compound too: C#CCNC(=O)c1cc(Nc2cc(C3CC3)[nH]n2)nc(N2CCN(Cc3ccc(S(=O)(=O)F)cc3)CC2)n1
< 4.52

C#CCNC(=O)c1cc(Nc2cc(C)[nH]n2)nc(N2CCN(Cc3ccc(S(=O)(=O)F)cc3)CC2)n1 , same question.
< 4.52

* * *

Each item that follows carries a reported pIC50.
- target desc: UniProt Q13164
- method notes: pIC50, kinobeads binding competition
- run conditions: cell material: Lysate mix
No unit in the answer, only the number.

Consider the worked cases shown below.
CCNC(=O)c1cc(Nc2cc(C3CC3)[nH]n2)nc(N2CCN(Cc3ccc(S(=O)(=O)F)cc3)CC2)n1	5.16
CCNC(=O)c1cc(Nc2cc(C)[nH]n2)nc(N2CCN(Cc3ccc(S(=O)(=O)F)cc3)CC2)n1	4.6

# evaluate next
Look up pIC50 for this molecule: C#CCNC(=O)c1cc(Nc2cc(C3CC3)[nH]n2)nc(N2CCN(Cc3ccc(S(=O)(=O)F)cc3)CC2)n1
5.14

* * *

- target desc: ACVR2B (UniProt Q13705)
- method notes: pIC50, kinobeads binding competition
- run conditions: cell material: Lysate mix
Measured pIC50 accompanies every entry in the list below.

Cc1cc(Nc2cc(C(=O)NCCNC(=O)OC3CC/C=C/CCC3)nc(N3CCN(Cc4ccc(S(=O)(=O)F)cc4)CC3)n2)n[nH]1 (stereo unspecified)	< 4.52
C#CCNC(=O)c1cc(Nc2cc(C)[nH]n2)nc(N2CCN(Cc3ccc(S(=O)(=O)F)cc3)CC2)n1	< 4.52
CCNC(=O)c1cc(Nc2cc(C3CC3)[nH]n2)nc(N2CCN(Cc3ccc(S(=O)(=O)F)cc3)CC2)n1	< 4.52
O=C(NCCNC(=O)c1cc(Nc2cc(C3CC3)[nH]n2)nc(N2CCN(Cc3ccc(S(=O)(=O)F)cc3)CC2)n1)OC1CC/C=C/CCC1 (stereo unspecified)	< 4.52
CCNC(=O)c1cc(Nc2cc(C)[nH]n2)nc(N2CCN(Cc3ccc(S(=O)(=O)F)cc3)CC2)n1	< 4.52

I'm curious: which pIC50 was measured for C#CCNC(=O)c1cc(Nc2cc(C3CC3)[nH]n2)nc(N2CCN(Cc3ccc(S(=O)(=O)F)cc3)CC2)n1 tested on ACVR2B (UniProt Q13705)?
< 4.52

* * *

- target desc: CAMK2G (UniProt Q13555)
- method notes: pIC50, kinobeads binding competition
- run conditions: cell material: Lysate mix
measurement name: pIC50

In the examples that follow, each entry is paired with its recorded pIC50.
CCNC(=O)c1cc(Nc2cc(C3CC3)[nH]n2)nc(N2CCN(Cc3ccc(S(=O)(=O)F)cc3)CC2)n1	< 4.52
O=C(NCCNC(=O)c1cc(Nc2cc(C3CC3)[nH]n2)nc(N2CCN(Cc3ccc(S(=O)(=O)F)cc3)CC2)n1)OC1CC/C=C/CCC1 (stereo unspecified)	< 4.52
C#CCNC(=O)c1cc(Nc2cc(C3CC3)[nH]n2)nc(N2CCN(Cc3ccc(S(=O)(=O)F)cc3)CC2)n1	< 4.52
CCNC(=O)c1cc(Nc2cc(C)[nH]n2)nc(N2CCN(Cc3ccc(S(=O)(=O)F)cc3)CC2)n1	< 4.52
C#CCNC(=O)c1cc(Nc2cc(C)[nH]n2)nc(N2CCN(Cc3ccc(S(=O)(=O)F)cc3)CC2)n1	< 4.52

# ---- query compound ----
Would you mind telling me what pIC50 value was observed for Cc1cc(Nc2cc(C(=O)NCCNC(=O)OC3CC/C=C/CCC3)nc(N3CCN(Cc4ccc(S(=O)(=O)F)cc4)CC3)n2)n[nH]1 (stereo unspecified) ?
< 4.52

* * *

Reported pIC50 values are given for each entry in this list.
- target desc: UniProt Q16584
- method notes: pIC50, kinobeads binding competition
- run conditions: cell material: Lysate mix

// solved cases for pIC50 follow
Cc1cc(Nc2cc(C(=O)NCCNC(=O)OC3CC/C=C/CCC3)nc(N3CCN(Cc4ccc(S(=O)(=O)F)cc4)CC3)n2)n[nH]1 (stereo unspecified)	< 4.52
O=C(NCCNC(=O)c1cc(Nc2cc(C3CC3)[nH]n2)nc(N2CCN(Cc3ccc(S(=O)(=O)F)cc3)CC2)n1)OC1CC/C=C/CCC1 (stereo unspecified)	< 4.52
C#CCNC(=O)c1cc(Nc2cc(C3CC3)[nH]n2)nc(N2CCN(Cc3ccc(S(=O)(=O)F)cc3)CC2)n1	5.64
CCNC(=O)c1cc(Nc2cc(C)[nH]n2)nc(N2CCN(Cc3ccc(S(=O)(=O)F)cc3)CC2)n1	< 4.52
CCNC(=O)c1cc(Nc2cc(C3CC3)[nH]n2)nc(N2CCN(Cc3ccc(S(=O)(=O)F)cc3)CC2)n1	5.29

Pending compound:
Which pIC50 reading was recorded for the compound C#CCNC(=O)c1cc(Nc2cc(C)[nH]n2)nc(N2CCN(Cc3ccc(S(=O)(=O)F)cc3)CC2)n1 ?
< 4.52
